Provide the recorded % cell viability for the entries that follow.
- Test system: VeroVP30 cells
The answer is to be given in %; state only the numeric part.

Q: Give the measured % cell viability for C=C1C2CC[C@@]3(C)[C@H](c4ccoc4)OC(=O)C[C@]13O[C@H]1CC(=O)C(C)(C)[C@H](C(OC(C)=O)C(=O)OC)[C@@]21C (stereo partly shown) [6-Acetoxyangolensic acid methyl ester]
A: 88

Q: Name the recorded % cell viability of the compound listed here: CC(=O)O[C@@H]1CC2C(C)(C)[C@H](O)CC[C@]2(C)C2CC[C@@]3(C)[C@H](c4ccoc4)OC(=O)C4OC43[C@@]21C (stereo partly drawn) [3alpha-Hydroxydeoxodihydrogedunin]
A: 94

Q: Please give the documented % cell viability of CCC(C)C(=O)O[C@@H]1C[C@@]2(C)[C@H](c3ccoc3)OC(=O)CC23OC2(C)OC34[C@H](OC(=O)C(C)C)[C@@]3(O)[C@@H](OC(=O)C5(C)OC5C)[C@@]5(C)C[C@]3(O)[C@@](C)([C@H]5CC(=O)OC)C14O2 (stereo partly shown) [Entandrophragmin]
A: 83

Q: Check the records and state % cell viability for CC1(C)C=CC(=O)[C@@]2(C)C1CC(=O)[C@]1(C)C2CC[C@@]2(C)[C@H](c3ccoc3)OC(=O)C3OC321 (stereo partly shown) [Deacetoxy-7-oxisogedunin]
A: 84

Q: Respond only with % cell viability recorded for C=C1[C@@H]2CC[C@@]3(C)[C@H](c4ccoc4)OC(=O)C[C@]13O[C@H]1CC(=O)C(C)(C)[C@H](CC(=O)OC)[C@]12C [Angolensic acid, methyl ester]
A: 85

Q: # return recorded % cell viability for entry CC(=O)O[C@@H]1CC(=O)[C@@]2(C)C(CC(=O)[C@]3(C)C2CC[C@@]2(C)[C@H](c4ccoc4)OC(=O)C4OC423)C1(C)C (stereo partly shown) [1,7-Dideacetoxy-1,7-dioxokhivorin]
A: 88

Q: Fill in % cell viability for record CC1(C)C2CC(=O)[C@]3(C)C(CC[C@@]4(C)[C@H](c5ccoc5)OC(=O)[C@H]5O[C@]543)[C@@]2(C)C(=O)C[C@H]1O (stereo partly shown)
A: 87

Numbers sourced from patent US9222118B2.
